Molecular target: T1, cynomolgus TIM-3 on isolated cyno CD14+ monocytes (cynomolgus monkey, UniProt A0A2K5U3G7 22-294)
T1 construct: whole, on cells; also called cyno monocytes expressing TIM-3
T1 sequence: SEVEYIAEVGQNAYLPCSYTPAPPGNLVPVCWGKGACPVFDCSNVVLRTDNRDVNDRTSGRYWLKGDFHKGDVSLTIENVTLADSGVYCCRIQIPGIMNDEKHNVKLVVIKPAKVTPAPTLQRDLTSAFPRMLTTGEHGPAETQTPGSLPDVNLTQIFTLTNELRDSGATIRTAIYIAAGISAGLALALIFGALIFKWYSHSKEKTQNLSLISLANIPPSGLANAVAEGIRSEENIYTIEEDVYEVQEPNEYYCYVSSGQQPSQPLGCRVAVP
Experiment: FACS, cyno CD14+ monocytes, cyno1 (16719M)
Can you tell me Specific Binding [MFI] for the items I'm about to list?
Please respond with the number in MFI and leave the unit unwritten.

The measured Specific Binding [MFI] associated with anti-TIM3 antibody Tim3_0028 (antibody, V domains shown, Mouse monoclonal from hybridoma) VH: EVQLQQSVAELVRPGASVKLSCTASGFNIKTTYMHWVKQRPEQGLEWIGRIDPADDNTKYAPKFQGKATITADTSSNTAYLQLSSLTSEDAAIYYCVRDFGYVAWFAYWGQGTLVTFSA VL: NIVMTPTPKFLPVSSGDRVTMTCRASQSVDNYVAWYQQKPGQSPKLLIYYASNRYIGVPDRFTGSGSGTDFTFTISSVQVEDLAVYFCQQHYSSPYTFGSGTKLEIK reads 3940

The measured Specific Binding [MFI] associated with anti-TIM3 antibody Tim3_0022 (antibody, V domains shown, Mouse monoclonal from hybridoma; also called <TIM-3> Ab(022)) VH: EVQLQESGPSLVKPSQTLSLTCSVTGDSIASAYWNWIRKFPGNKLEYMGYINYSGSTYYNPSLKSRISITRDTSQNQYYLQLNSVTTEDTATYYCVTGDYFDYWGRGTTLTVSS VL: DIQMTQSPSSLSAYLGGKVTITCKARQDVRKNIGWYQHKPGKGPRLLIWYTSTLQSGIPSRFSGSGSGRDYSFNINNLEPEDIATYYCLQYDNLPFTFGTGTKLEIR reads 115

The measured Specific Binding [MFI] associated with anti-TIM3 antibody Tim3_0021 (antibody, V domains shown, Mouse monoclonal from hybridoma) VH: QVQLQQSGPQLVRPGASVQISCKASGYSFTSYLLHWLKQRPGQGLEWIGMIDPSDSETRLNQKFKDKATLTVDKSSSTAYMQLSSPTSEDSAVYYCARDGYYAWYYFDCWGQGTTLTVSS VL: DIVLTQSPATLSVTPGDRVSLSCRASQSIGNNLHWYQQKSHESPRLLIKYASHSISGIPSKFSGTGSGTDFTLSFNSVETEDFGMYFCQQSNSWPLTFGAGTKLELK reads 348
